# Tested on: PC-3
# procedure summary: Cell viability (MTS) anti-proliferative assay, PC-3
# Type: cell-based
# test context: PC-3 human prostate cancer, 48 h treatment, n = 4, read-out: IC50 values ± SEM, PC-3
endpoint name: IC50 (nM)

I. Cc1ccc(COCc2cc(CN3CCCC3)c(O)c3ncccc23)cc1
II. Oc1c(CN2CCCC2)cc(COCc2ccc(Br)cc2)c2cccnc12
III. Oc1c(CN2CCCC2)cc(COCc2cccs2)c2cccnc12
Sort by IC50, descending. Would you mind listing the labels in the order requested? III, I, II
(III: 3400 nM, I: 1100 nM, II: 700 nM)

###

# Tested on: M14
# procedure summary: Cell viability (MTS) anti-proliferative assay, M14
# Assay type: cell-based
# test context: M14 human melanoma, 48 h treatment, n = 4, read-out: IC50 values ± SEM, M14
endpoint name: pIC50
Units for pIC50: none; it is -log10 of a concentration expressed in mol/L.

line notation: Oc1c(CN2CCCC2)cc(COCc2ccc(Cl)cc2)c2cccnc12
pIC50: 5.96
--
line notation: Oc1c(CN2CCCCC2)cc(COCc2ccccc2)c2cccnc12
pIC50: 5.89

As a next step, examine the compound that follows.
Consider the compound shown here: CCc1ccc(COCc2cc(CN3CCCC3)c(O)c3ncccc23)cc1 What is its recorded pIC50? 6.05

###

# Tested on: PC-3
# procedure summary: Cell viability (MTS) anti-proliferative assay, PC-3
# Type: cell-based
# test context: PC-3 human prostate cancer, 48 h treatment, n = 4, read-out: IC50 values ± SEM, PC-3
pIC50: −log10 of the molar value.
endpoint name: pIC50

In the examples that follow, each entry is paired with its recorded pIC50.
line notation: COc1ccc(COCc2cc(CN3CCCC3)c(O)c3ncccc23)cc1
pIC50: 6.00

line notation: COc1cc(COCc2cc(CN3CCCC3)c(O)c3ncccc23)cc(OC)c1OC
pIC50: 5.80

I. CCc1ccc(COCc2cc(CN3CCCC3)c(O)c3ncccc23)cc1
II. CC(C)(C)c1ccc(COCc2cc(CN3CCCC3)c(O)c3ncccc23)cc1
Sorting ascending by pIC50, which comes first: I or II ? Mark your answer with the label of the selected entry. II

###

# System: PC-3
# procedure summary: Cell viability (MTS) anti-proliferative assay, PC-3
# Type: cell-based
# test context: PC-3 human prostate cancer, 48 h treatment, n = 4, read-out: IC50 values ± SEM, PC-3
endpoint name: IC50 (nM)

line notation: Oc1c(CN2CCCC2)cc(COCc2ccc(F)cc2)c2cccnc12
IC50 (nM): 700
//
line notation: CC(C)c1ccc(COCc2cc(CN3CCCC3)c(O)c3ncccc23)cc1
IC50 (nM): 700

1. Oc1c(CN2CCCC2)cc(COCc2ccc(Cl)cc2)c2cccnc12
2. Oc1c(CN2CCCCC2)cc(COCc2ccccc2)c2cccnc12
Select one: 1 or 2 . Criterion: greater recorded IC50. Mark your answer with the label of the selected entry. 2

This collection of values is drawn from paper PMC4466525.
